# Tested on: SW-620 colon
# assay_summary: NCI-60 one-dose screen, 48 h (100 = growth as untreated, 0 = no growth, -100 = all killed)
# run_conditions: 10 µM unless noted
About 83,000 compounds went through this panel and 20% of them were active in at least one assay; those are over-represented in the sample as a whole.
Listing of recorded growth by entry.
Answer in %, number only, no unit symbol.

Sample answers from the record:
COc1ccc(C(=O)/C=C/c2cc3ccccc3[nH]c2=O)cc1	-21
Cc1noc(C)c1-c1cc(O)cc(C(O)c2ccccc2)c1 (stereo unspecified)	72.1
O=C1C=CC(=O)N1c1ccc(Cc2ccc(N3C(=O)C=CC3=O)cc2)cc1	110
O=C(O)C(O)C(O)C(=O)O.[NH-]C1CCCCC1[NH-].[Pt+2] (stereo unspecified)	95
COCCCN=C(N)c1ccc(NC(=O)c2ccc(C(=O)Nc3ccc(C(N)=NCCCOC)cc3)cc2)cc1	106

Exercise: For COc1cc(C2C(C(=O)c3cccs3)=C(O)C(=O)N2CCN2CCOCC2)cc(OC)c1OC (stereo unspecified) , what is its reported growth?
Key: 97.2
